# ASSAY_PROTOCOL: APR_HepG2_p53Act_72hr: Apredica 72-hour HepG2 Assay for p53 Activation (AID 2282923);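 note: average cellular p53 protein immunofluorescence intensity in HepG2 cells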
# TEST_SETTINGS: high-content imaging, actives raise or lower the signal
Active and inactive are the calls of the source. Rule for the calls: active = hit-call score of the fitted dose curve at least 0.9, where 1 is the maximum; inactive = score below 0.9.
Valid outcomes are listed here; reply with one: T (active), F (inactive)

{"STRUCTURE_SMILES_STRING": "O=C1O[C@H]([C@@H](O)CO)C(O)=C1O", "LABEL": "T"}
{"STRUCTURE_SMILES_STRING": "Cc1cc(F)ccc1-c1cc(N2CC[C@@H](O)[C@H]2CO)ncc1N(C)C(=O)C(C)(C)c1cc(C(F)(F)F)cc(C(F)(F)F)c1", "LABEL": "T"}
{"STRUCTURE_SMILES_STRING": "CCCCCCCCCCCC[N+](C)(C)C", "LABEL": "T"}
{"STRUCTURE_SMILES_STRING": "CC/C(=C(/CC)c1ccc(O)cc1)c1ccc(O)cc1", "LABEL": "T"}

Any idea what this test logged for O=C1c2ccccc2C(=O)N1CCc1noc(-c2ccc(CN3CCCCCC3)s2)n1 ?
F

----------
# MEASURED_TARGET: Paired box protein Pax-6 (Homo sapiens)
# ASSAY_PROTOCOL: ATG_Pax6_CIS: Attagene CIS-FACTORIAL HepG2 Assay for human Paired Box 6 (PAX6) (AID 2282956)
# TEST_SETTINGS: HepG2 CIS-FACTORIAL PAX6 reporter transcription, RNA readout; actives raise or lower the signal
The source made the active and inactive calls. The calls were made as follows: active = hit-call score of the fitted dose curve at least 0.9, where 1 is the maximum; inactive = score below 0.9.
Valid outcomes are listed here; reply with one: TRUE = active, FALSE = inactive

A selection of reference data follows.
{"COMPOUND": "CCCCCCCCOc1ccc(C(=O)c2ccccc2)c(O)c1", "LABEL": "FALSE"}
{"COMPOUND": "O=C(O)c1ccccc1-n1cc(C(=O)O)c(=O)c2cc(Nc3c(F)cc(F)cc3Cl)c(Cl)cc21", "LABEL": "FALSE"}
{"COMPOUND": "c1ccc2n[nH]nc2c1", "LABEL": "FALSE"}
{"COMPOUND": "CCCCCCCCCCCC[N+](C)(C)C", "LABEL": "FALSE"}
{"COMPOUND": "CCOC(=O)O[C@H](C)OC(=O)c1ccc2c(c1)cc(C(=O)NC1CCN(C(C)C)CC1)n2Cc1cc(-c2ccc(Cl)s2)on1", "LABEL": "FALSE"}

Any idea what this test logged for Cc1ncc(CO)c(CO)c1O ?
FALSE

Any idea what this test logged for CN(C)C(=O)C1(N2CCCCC2)CCN(CC[C@@]2(c3ccc(Cl)c(Cl)c3)CN(C(=O)c3ccccc3)CCO2)CC1 ?
FALSE

----------
# ASSAY_PROTOCOL: ATG_PBREM_CIS: Attagene CIS-FACTORIAL HepG2 Assay for human Phenobarbital-responsive Enhancer Module (PBREM) (AID 2282955)
# TEST_SETTINGS: HepG2 PBREM cis-reporter, Attagene multiplexed transcription; actives raise or lower the signal
Activity calls are given as the source filed them. Rule for the calls: active = hit-call score of the fitted dose curve at least 0.9, where 1 is the maximum; inactive = score below 0.9.
Valid outcomes are listed here; reply with one: active, inactive

A selection of reference data follows.
{"STRUCTURE_SMILES_STRING": "Cc1cc2c(cc1C(F)(F)F)N(C(=O)Nc1ccc(Oc3cccnc3C)nc1)CC2", "LABEL": "inactive"}
{"STRUCTURE_SMILES_STRING": "CC1=CC(=O)/C(=C(/C)O)C(=O)O1", "LABEL": "inactive"}
{"STRUCTURE_SMILES_STRING": "NCc1cccc(C2CCN(C(=O)c3ccc(C#Cc4ccccc4F)o3)CC2)c1", "LABEL": "active"}
{"STRUCTURE_SMILES_STRING": "CCO[Si](CCCNC(N)=O)(OCC)OCC", "LABEL": "inactive"}
{"STRUCTURE_SMILES_STRING": "CCCCCCCCCCCCO", "LABEL": "inactive"}
{"STRUCTURE_SMILES_STRING": "CC(C)(O)c1ccc(CNC(=O)c2cccnc2Oc2ccc3nonc3c2)cc1", "LABEL": "active"}

Any idea what this test logged for COc1cc(C(=O)NC2CCN(C)CC2)ccc1Nc1ncc2c(n1)N(C1CCCC1)CC(F)(F)C(=O)N2C ?
inactive

Any idea what this test logged for Cc1ccc(C(C)C)cc1 ?
inactive

Any idea what this test logged for Cc1c2ccccc2c(C)c2c1ccc1ccccc12 ?
inactive

Any idea what this test logged for CC1(C)NC(=O)N(c2ccc([N+](=O)[O-])c(C(F)(F)F)c2)C1=O ?
inactive

Any idea what this test logged for O=c1[nH]sc2ccccc12 ?
inactive

All values here come from PubChem BioAssay (EPA / NIEHS).
